# Test system: RXF 393 renal
# measurement_protocol: NCI-60 one-dose screen, 48 h (100 = growth as untreated, 0 = no growth, -100 = all killed)
# experimental_parameters: 10 µM
This is part of a sample that, as a whole, favours compounds with a hit. Of some 83,000 tested, about 20% had one in any assay.
The following compounds are listed with their measured growth values.
Number in %, nothing else.

Reference set, count: 6
INSERT INTO results (cpd_smiles, target_system, data_value) VALUES
  ('CCCCCCCCCCCCCCCCCCCC(=O)NCCc1c[nH]c2ccc(OC(=O)NOCCOCCOCCOCCOCCOCCOCCOCCOCCOCCOCCOCCOCCOCCOCCOCCOCCOCCOCCOCCOCCOCCOC)cc12', 'RXF 393 renal', 12),
  ('COc1cc(Cn2c(C(F)(F)F)cc3c(Cl)ncnc32)ccn1', 'RXF 393 renal', 32.9),
  ('COc1cc2c(cc1OC)/C(=C\c1sc(Nc3ccc(O)cc3)nc1O)C(C(=O)O)=N2', 'RXF 393 renal', 25),
  ('CC(=O)Nc1ccc(-c2cn(-c3cccc(C(=O)Nc4cc(C(F)(F)F)cc(C(F)(F)F)c4)c3)nn2)cn1', 'RXF 393 renal', -69.4),
  ('O=C1NC(=NC2CCCCCC2)N/C1=C\c1ccc2ncoc2c1', 'RXF 393 renal', -8.82),
  ('N#Cc1c(NC(=O)c2ccc(C(F)(F)F)c(Cl)c2)sc2c1CCC(=O)C2', 'RXF 393 renal', -86.3);

Entry "CC(=C(c1ccc(OCCCN(C)C)cc1)c1ccc(OCCCN(C)C)cc1)c1ccccc1" : reported growth = ? -96.7

Looking for the measured growth of "O=C1Nc2cc(-c3ccc(NC(=O)c4cccc([N+](=O)[O-])c4)cc3)ccc2/C1=C/c1ccc[nH]1" , can you help? 83.7

I am curious: what growth value has been reported for "O=C(O)CCCCCCCCCCN1C(=O)/C(=C/c2cnc(-c3ccc(Cl)cc3)s2)SC1=S" ? 77.4
